- target_or_system: Solute carrier family 12 member 5 (Homo sapiens)
- assay_details: modulation of human KCC2 ion transport – cell-based, HEK293 KCC2, FluoZin-2 fluorescence, MLSMR, primary screen (AID 1456);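 further: slope of fluorescence scaled to starting intensity during 10 to 20 s after thallium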
- experimental_context: KCC2 cells, thallium flux FluoZin-2 fluorescence; at 10 µM
Among all 190,000 compounds or so, about 4,100 (2.2%) were called active. What follows is part of a selection rich in actives, with near analogues and random picks from the rest.
Okay, here is how we bin by B-score of Tl+ flux slope (higher = more flux/activation; lower = inhibition): group A (below -0.2), group B (-0.2 to below 0.5), group C (0.5 or more)

// below: answered molecules
# molecule, category
measured = [
    ("COC(=O)c1cccnc1NC(=S)NC(C)C", "group C"),
    ("COC(=O)c1ccccc1NC(=S)NC(=O)c1ccccc1F", "group C"),
    ("Cc1nn(C)c(C(=O)NNC(=S)NC2CCCCC2)c1Cl", "group B"),
    ("COC(=O)[C@H](C)[C@H]1C[C@]1(C)[C@H](NC(=O)OCc1ccccc1)c1ccccc1", "group C"),
    ("CCNC(=S)Nc1ccc(OC(F)(F)F)cc1", "group A"),
]

In: Which B-score of Tl+ flux slope (higher = more flux/activation; lower = inhibition) category applies to C[C@@H](C(=O)Nc1ccc2ccccc2c1)[C@@H]1C[C@@]1(C)[C@@H](NC(=O)c1cccnc1)c1ccccc1 here?
Out: group A

In: Which B-score of Tl+ flux slope (higher = more flux/activation; lower = inhibition) category applies to CC1CCN(Cc2nc(-c3ccc(Cl)cc3)no2)CC1 here?
Out: group B

In: Which B-score of Tl+ flux slope (higher = more flux/activation; lower = inhibition) category applies to Oc1ccc2ccccc2c1C=Nc1ccccc1 here?
Out: group A

In: Which B-score of Tl+ flux slope (higher = more flux/activation; lower = inhibition) category applies to CC(NC(=S)Nc1ccccc1)C(c1cccs1)N1CCOCC1 (stereo unspecified) here?
Out: group C

In: Which B-score of Tl+ flux slope (higher = more flux/activation; lower = inhibition) category applies to c1ccc2c(CSCc3nc4ccccc4[nH]3)cccc2c1 here?
Out: group A

In: Which B-score of Tl+ flux slope (higher = more flux/activation; lower = inhibition) category applies to Cc1ccc(-c2noc(CN3CCN(Cc4ccccc4)CC3)n2)cc1 here?
Out: group A

In: Which B-score of Tl+ flux slope (higher = more flux/activation; lower = inhibition) category applies to Cc1noc(C)c1C(=O)OCC(=O)N1CCN(S(=O)(=O)c2ccc3ccccc3c2)CC1 here?
Out: group B

In: Which B-score of Tl+ flux slope (higher = more flux/activation; lower = inhibition) category applies to CCOC(=O)c1cccnc1NC(=O)c1ccncc1 here?
Out: group B

In: Which B-score of Tl+ flux slope (higher = more flux/activation; lower = inhibition) category applies to COc1cccc(-n2c(=S)[nH]c3c(oc4ccccc43)c2=O)c1 here?
Out: group A

In: Which B-score of Tl+ flux slope (higher = more flux/activation; lower = inhibition) category applies to CSc1nc(-c2ccco2)nn1C(=O)c1ccccc1Cl here?
Out: group A

In: Which B-score of Tl+ flux slope (higher = more flux/activation; lower = inhibition) category applies to Oc1ccc2ccccc2c1N=Nc1nccs1 here?
Out: group C

In: Which B-score of Tl+ flux slope (higher = more flux/activation; lower = inhibition) category applies to O=C(Nc1ccc(N2CCN(C(=O)c3ccccc3)CC2)c(Cl)c1)c1cccnc1 here?
Out: group C

In: Which B-score of Tl+ flux slope (higher = more flux/activation; lower = inhibition) category applies to COC(=O)c1scc(C)c1NC(=O)CSc1ccc(Cl)cc1 here?
Out: group A

In: Which B-score of Tl+ flux slope (higher = more flux/activation; lower = inhibition) category applies to CCC(=O)NNc1cc(=O)c2c(=O)n(C)c(=O)n(C)c2[nH]1 here?
Out: group C

In: Which B-score of Tl+ flux slope (higher = more flux/activation; lower = inhibition) category applies to COC(=O)c1sccc1NC(=O)COc1ccc(Cl)cc1 here?
Out: group B

In: Which B-score of Tl+ flux slope (higher = more flux/activation; lower = inhibition) category applies to CCN(CC)c1ccc(NC(=O)C2CCC(CNc3c(N4CCCC4)c(=O)c3=O)CC2)c(C)c1 (stereo unspecified) here?
Out: group C

In: Which B-score of Tl+ flux slope (higher = more flux/activation; lower = inhibition) category applies to CSC1=NCCN1C(=O)Cc1cccc2ccccc12 here?
Out: group B

In: Which B-score of Tl+ flux slope (higher = more flux/activation; lower = inhibition) category applies to CSCCC(Nc1nc2ccccc2s1)C(=O)O (stereo unspecified) here?
Out: group B

In: Which B-score of Tl+ flux slope (higher = more flux/activation; lower = inhibition) category applies to Cc1cccc(C(=O)NC(=S)N2CCN(c3ccc([N+](=O)[O-])cc3)CC2)c1 here?
Out: group C

In: Which B-score of Tl+ flux slope (higher = more flux/activation; lower = inhibition) category applies to Cc1nc(N)sc1N=Nc1c(C)n(C)n(-c2ccccc2)c1=O here?
Out: group B

In: Which B-score of Tl+ flux slope (higher = more flux/activation; lower = inhibition) category applies to Cc1cc(C)cc(NC(=O)Cn2cnc3c(nnn3Cc3ccc(F)cc3)c2=O)c1 here?
Out: group B

In: Which B-score of Tl+ flux slope (higher = more flux/activation; lower = inhibition) category applies to CC(=O)c1ccc(S(=O)(=O)Nc2ccc(C(=O)NCC(c3ccccc3)N(C)C)cc2)cc1 (stereo unspecified) here?
Out: group B

In: Which B-score of Tl+ flux slope (higher = more flux/activation; lower = inhibition) category applies to Clc1cccc(N=C2NN=C(c3ccc4c(c3)OCCO4)CS2)c1 here?
Out: group C

In: Which B-score of Tl+ flux slope (higher = more flux/activation; lower = inhibition) category applies to Cc1ccc(Cc2nc(-c3cccc(C)c3)no2)cc1 here?
Out: group A

---

Below, each entry is listed alongside its reported B-score of Tl+ flux slope (higher = more flux/activation; lower = inhibition).
- target_or_system: Solute carrier family 12 member 5 (Homo sapiens)
- assay_details: modulation of human KCC2 ion transport – cell-based, HEK293 KCC2, FluoZin-2 fluorescence, MLSMR, primary screen (AID 1456);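 further: slope of fluorescence scaled to starting intensity during 10 to 20 s after thallium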
- experimental_context: KCC2 cells, thallium flux FluoZin-2 fluorescence; at 10 µM
Among all 190,000 compounds or so, about 4,100 (2.2%) were called active. What follows is part of a selection rich in actives, with near analogues and random picks from the rest.
Provide a numeric answer; units are not to be included.

The examples below pair each entry with its known result.
# compound, numeric_value
measured = [
    ("COc1ccc(-c2csc(NC3OC(=O)c4ccccc43)n2)cc1 (stereo not given)", 0.605),
    ("Cc1cc(OCCCN2CCN(Cc3ccccc3)CC2)ccc1[N+](=O)[O-]", -0.489),
    ("CCc1nc2sc3c(Cl)ncnc3c2c2c1CCCC2", 1.2),
    ("O=C(Oc1cccnc1)c1cc2ccccc2oc1=O", 0.0371),
    ("CCN(CC)CCn1cnc2c1c(=O)n(CCOC(=O)c1cc(OC)c(OC)c(OC)c1)c(=O)n2C", -0.175),
    ("Nc1ncc(-c2cc3ccccc3oc2=O)s1", -0.488),
    ("Cc1cc(NC(=O)OC(C)C)ccc1-c1ccc(NC(=O)OC(C)C)cc1C", -0.761),
    ("O=C(c1cn(-c2ccccc2)nc1-c1cc2ccccc2oc1=O)N1CCOCC1", -0.172),
    ("Cc1ccc(S(=O)(=O)N2CCN(C(=O)COC(=O)c3c(C)noc3C)CC2)c(C)c1", 0.177),
]

# ---- query compound ----
In: Sample CCCCn1c(=O)c(C(C)=O)c(O)c2ccccc21 — what was its B-score of Tl+ flux slope (higher = more flux/activation; lower = inhibition)?
Out: -0.478

---

- target_or_system: Solute carrier family 12 member 5 (Homo sapiens) (UniProt Q9H2X9)
- Sequence (Q9H2X9 whole entry, looked up): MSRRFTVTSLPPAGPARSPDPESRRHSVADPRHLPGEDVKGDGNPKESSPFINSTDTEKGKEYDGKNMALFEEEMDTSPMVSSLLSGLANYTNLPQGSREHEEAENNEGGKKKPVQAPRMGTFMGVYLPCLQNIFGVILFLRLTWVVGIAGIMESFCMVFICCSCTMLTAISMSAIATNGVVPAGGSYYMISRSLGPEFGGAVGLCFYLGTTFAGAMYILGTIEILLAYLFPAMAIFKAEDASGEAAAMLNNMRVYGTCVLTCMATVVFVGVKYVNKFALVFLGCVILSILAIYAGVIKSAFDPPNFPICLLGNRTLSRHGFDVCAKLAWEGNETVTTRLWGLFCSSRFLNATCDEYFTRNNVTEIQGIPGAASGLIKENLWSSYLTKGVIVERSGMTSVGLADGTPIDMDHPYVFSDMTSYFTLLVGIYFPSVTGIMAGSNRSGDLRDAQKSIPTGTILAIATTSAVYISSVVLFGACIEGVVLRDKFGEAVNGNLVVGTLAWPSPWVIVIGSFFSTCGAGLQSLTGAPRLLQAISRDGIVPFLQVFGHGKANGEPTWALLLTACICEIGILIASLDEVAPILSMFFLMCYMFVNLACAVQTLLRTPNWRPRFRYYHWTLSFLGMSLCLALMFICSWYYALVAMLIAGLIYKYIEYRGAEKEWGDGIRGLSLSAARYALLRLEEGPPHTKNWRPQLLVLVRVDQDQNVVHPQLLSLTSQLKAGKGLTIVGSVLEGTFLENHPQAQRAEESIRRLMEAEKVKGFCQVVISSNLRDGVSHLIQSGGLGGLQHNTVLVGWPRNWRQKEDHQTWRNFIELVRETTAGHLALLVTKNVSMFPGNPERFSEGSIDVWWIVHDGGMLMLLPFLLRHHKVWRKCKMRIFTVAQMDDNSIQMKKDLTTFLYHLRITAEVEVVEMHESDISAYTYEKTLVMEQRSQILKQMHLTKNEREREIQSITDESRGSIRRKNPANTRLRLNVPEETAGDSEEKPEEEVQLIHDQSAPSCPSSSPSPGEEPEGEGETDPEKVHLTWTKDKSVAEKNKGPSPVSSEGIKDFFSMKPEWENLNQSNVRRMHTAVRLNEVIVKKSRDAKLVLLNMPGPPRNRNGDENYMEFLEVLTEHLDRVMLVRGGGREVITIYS
- assay_details: modulation of human KCC2 ion transport – cell-based, HEK293 KCC2, FluoZin-2 fluorescence, MLSMR, primary screen (AID 1456);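 further: slope of fluorescence scaled to starting intensity during 10 to 20 s after thallium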
- experimental_context: KCC2 cells, thallium flux FluoZin-2 fluorescence; at 10 µM
In all, about 190,000 compounds went through this assay and about 4,100 (2.2%) were called active. What follows is part of a selection rich in actives, with near analogues and random picks from the rest.
Below, each entry is listed alongside its reported B-score of Tl+ flux slope (higher = more flux/activation; lower = inhibition).
Provide a numeric answer; units are not to be included.

The examples below pair each entry with its known result.
# compound, target_or_system, numeric_value
data = [
    ("CC(C)(C)C(=O)NNC(=O)c1ccc(Oc2cc(Cl)cc(Cl)c2)o1", "Solute carrier family 12 member 5 (Homo sapiens) (UniProt Q9H2X9)", 4.1),
    ("C/C=N/N(c1ccccc1)c1ccccc1", "Solute carrier family 12 member 5 (Homo sapiens) (UniProt Q9H2X9)", 0.121),
    ("CC(C)(C)c1cc(C(=O)NN)n(Cc2ccc(Cl)cc2Cl)n1", "Solute carrier family 12 member 5 (Homo sapiens) (UniProt Q9H2X9)", -0.315),
    ("Fc1ccc2nc(-c3ccccc3)nc(SCc3nnc(-c4ccccc4)o3)c2c1", "Solute carrier family 12 member 5 (Homo sapiens) (UniProt Q9H2X9)", 41.8),
    ("O=C(c1cc(-c2cccc(O)c2)on1)N1CCc2ccccc2C1", "Solute carrier family 12 member 5 (Homo sapiens) (UniProt Q9H2X9)", -2.87),
]

In: Give the reported B-score of Tl+ flux slope (higher = more flux/activation; lower = inhibition) for O=C(CSc1cccc2cccnc12)N/N=C/c1cccnc1 (system: Solute carrier family 12 member 5 (Homo sapiens) (UniProt Q9H2X9)).
Out: 30.2

In: Give the reported B-score of Tl+ flux slope (higher = more flux/activation; lower = inhibition) for Cc1nc2ccccc2n1CC(=O)N/N=C/c1cccnc1 (system: Solute carrier family 12 member 5 (Homo sapiens) (UniProt Q9H2X9)).
Out: 0.307

In: Give the reported B-score of Tl+ flux slope (higher = more flux/activation; lower = inhibition) for NNC(=O)c1cccc(COCC(F)(F)C(F)F)c1 (system: Solute carrier family 12 member 5 (Homo sapiens) (UniProt Q9H2X9)).
Out: -0.618

In: Give the reported B-score of Tl+ flux slope (higher = more flux/activation; lower = inhibition) for CC(Nc1nc(N2CCOCC2)nc2ccccc12)c1ccccc1 (stereo unspecified) (system: Solute carrier family 12 member 5 (Homo sapiens) (UniProt Q9H2X9)).
Out: -0.0767

In: Give the reported B-score of Tl+ flux slope (higher = more flux/activation; lower = inhibition) for CC(CC(=O)Nc1cc(C(F)(F)F)ccc1Cl)c1ccccc1 (stereo unspecified) (system: Solute carrier family 12 member 5 (Homo sapiens) (UniProt Q9H2X9)).
Out: -1.96

In: Give the reported B-score of Tl+ flux slope (higher = more flux/activation; lower = inhibition) for O=C(c1cc(COc2c(F)cccc2F)on1)N1CCSCC1 (system: Solute carrier family 12 member 5 (Homo sapiens) (UniProt Q9H2X9)).
Out: -0.926

In: Give the reported B-score of Tl+ flux slope (higher = more flux/activation; lower = inhibition) for O=C(c1cc(-c2ccc(O)cc2)on1)N1CCCc2ccccc21 (system: Solute carrier family 12 member 5 (Homo sapiens) (UniProt Q9H2X9)).
Out: -2.96

In: Give the reported B-score of Tl+ flux slope (higher = more flux/activation; lower = inhibition) for Cc1ccc2c(c1)c1ncn(Cc3ccc(F)cc3)c(=O)c1n2C (system: Solute carrier family 12 member 5 (Homo sapiens) (UniProt Q9H2X9)).
Out: -2.08

In: Give the reported B-score of Tl+ flux slope (higher = more flux/activation; lower = inhibition) for O=C(NNc1cc(Cl)cc(Cl)c1)c1c(F)cccc1Cl (system: Solute carrier family 12 member 5 (Homo sapiens) (UniProt Q9H2X9)).
Out: -0.755

In: Give the reported B-score of Tl+ flux slope (higher = more flux/activation; lower = inhibition) for C/C(=N\Nc1cccc(C(=O)O)c1)c1ccc2c(c1)Nc1ccccc1S2 (system: Solute carrier family 12 member 5 (Homo sapiens) (UniProt Q9H2X9)).
Out: -3.29

In: Give the reported B-score of Tl+ flux slope (higher = more flux/activation; lower = inhibition) for Cc1ccc2nc(SCc3nnc(-c4ccccc4[N+](=O)[O-])o3)c(C#N)cc2c1 (system: Solute carrier family 12 member 5 (Homo sapiens) (UniProt Q9H2X9)).
Out: 0.799
